Tested on: COLO 205
Test: NCI tumour cell line growth inhibition, 48 h
Calls of active or inactive are those of the source. No stated cut-off is given here; in the data, active = GI50 up to about 1.1 µM and inactive = higher. Where a SMILES comes first, the peptide text is derived from it. [ ]: non-standard residue; d: D form. The star is where a group is joined. Bn2Val = CC(C)[C@@H](C(=O)*)N(Cc1ccccc1)Cc1ccccc1; NH(3,4-diMeO-benzyl) = COc1ccc(CN*)cc1OC; NMeV = CN[C@H](C(=O)O)C(C)C
Outcomes: true = active, false = inactive

>>> labelvalue("CCOC(=O)C(=O)N1C(C)=C(C(=O)OCC)CC(C(=O)OCC)=C1C")
"false"
>>> labelvalue("Cn1nc2ccc([N+](=O)[O-])c(Cn3nnc4ccccc43)c2n1")
"false"
>>> labelvalue("COC1CC(N)(c2ccccc2)C(O)C(C)O1 (stereo not given)")
"false"
>>> labelvalue("COc1ccccc1NC(=O)CC(=O)n1nc(-c2ccccc2)c(/N=N/c2ccccc2[N+](=O)[O-])c1-c1ccccc1")
"false"
>>> labelvalue("Clc1nss/c1=N/c1nonc1-c1ccccc1")
"false"
>>> labelvalue("Cn1c(=O)c(NC(=O)C(Cl)(Cl)Cl)nc2ccccc21")
"false"
>>> labelvalue("O=C(O)c1nn(-c2ccccc2-c2nnc(O)nc2O)c(=O)[nH]c1=O")
"false"
>>> labelvalue("COC(=O)C1Cc2cc3c(cc2C1=O)CCCC3 (stereo not given)")
"false"
>>> labelvalue("CN1CCCN(C)C1c1cc([N+](=O)[O-])ccc1O")
"false"
>>> labelvalue("CC(=O)Nc1ccc(Cc2ccc3nc(O)cc(C)c3c2)cc1")
"false"
>>> labelvalue("Nc1ncnc2c1ccn2C/C=C\\CO")
"false"
>>> labelvalue("CCOC(=O)CN(Cc1ccccc1)Cc1c(C(=O)c2ccccc2)c2ccccc2n1C(=O)c1ccccc1")
"false"
>>> labelvalue("CCC1=C(C=O)c2cc3[nH]c(cc4nc(c5c6[nH]c(cc1n2)c(C)c6C(=O)C5C(=O)OC)C(CCC(=O)OC)C4C)c(C)c3CC (stereo not given)")
"false"
>>> labelvalue("CO/C(N)=C(C#N)/N=C/c1ccco1")
"false"
>>> labelvalue("O=NN(CCCl)C(=O)NCc1ccc[n+]([O-])c1")
"false"
>>> labelvalue("O=c1[nH]nc(-c2ccccc2)n1/N=C/c1cccc([N+](=O)[O-])c1")
"false"
>>> labelvalue("[O-][S+](Cc1ccccn1)c1nc2ccccc2nc1-c1ccccc1 (stereo not given)")
"false"
>>> labelvalue("CCCCCCCCCC[C@H](O)[C@H]1CC[C@@H]([C@@H](O)CC[C@H](O)[C@@H]2CCC(CCCCCCC[C@@H](O)CC3=C[C@H](C)OC3=O)O2)O1 (stereo not given in full)")
"false"
>>> labelvalue("O=C(O)c1ccc(NC(c2ccccc2)c2ccc3cccnc3c2O)cc1 (stereo not given)")
"false"
>>> labelvalue("CC1CC2CCCC(=O)C2=C(O)O1 (stereo not given)")
"false"
>>> labelvalue("O=C1CC(n2cccc2)c2cc(Br)sc21 (stereo not given)")
"false"
>>> labelvalue("COc1cc(S(=O)(=O)Nc2ccc(-c3csc(N)n3)cc2)ccc1Cl")
"false"
>>> labelvalue("CC(C)C1CC[C@H](C)C[C@@H]1OC(=O)C(C(=O)O[C@H]1C[C@@H](C)CCC1C(C)C)C(O)[C@@H]1OC(C)(C)O[C@H]1C1COC(C)(C)O1 (stereo not given in full)")
"false"
>>> labelvalue("NC(=O)NC(=O)C1CCC(=O)N1S(=O)(=O)c1ccc(Cl)cc1 (stereo not given)")
"false"
>>> labelvalue("CC1=C(C(=O)Nc2cc(F)c(F)cc2F)C(c2ccc(N(C)C)cc2)C(C(=O)Nc2cc(F)c(F)cc2F)=C(C)N1")
"false"
>>> labelvalue("O=C(O)CCSC(=S)Nc1cccc(F)c1")
"false"
>>> labelvalue("COc1ccc(N[S+]([O-])c2ccccc2OC)cc1 (stereo not given)")
"false"
>>> labelvalue("CC(C(=O)c1ccc(Cl)cc1)/C(=N/NC(=O)NN)C(=O)Nc1cccc(C(F)(F)F)c1 (stereo not given)")
"false"
>>> labelvalue("Nc1c2c(nc3ccccc13)CCCCCC2")
"false"
>>> labelvalue("CCOCC(=O)N[C@H]1CCc2cc(OC)c(OC)c(OC)c2-c2ccc(OC)c(=O)cc21")
"true"
>>> labelvalue("O=c1[nH]nc(Cc2ccccc2)n1/N=C/c1c(O)ccc2ccccc12")
"false"
>>> labelvalue("COc1ccc(CNC(=O)[C@@H]2CCCN2C(=O)[C@@H]2CCCN2C(=O)[C@H](C(C)C)N(C)C(=O)[C@@H](NC(=O)[C@H](C(C)C)N(Cc2ccccc2)Cc2ccccc2)C(C)C)cc1OC (Bn2Val-V[NMeV]PP-{NH(3,4-diMeO-benzyl)})")
"false"
>>> labelvalue("CCOc1ccc(/N=N/c2c(-c3ccccc3)nn(C(=O)CC(=O)Nc3cccc(C)c3)c2-c2ccccc2)cc1")
"false"
>>> labelvalue("O/N=C\\c1c(O)ccc2ccccc12")
"false"
>>> labelvalue("Cn1c2ccccc2c(=O)c2cccc(C(=O)NC(CCCNC(=N)N)C(=O)O)c21 (stereo not given)")
"false"
>>> labelvalue("COC1C(O)CC(OC2CC(Oc3cc4cc5c(c(O)c4c(O)c3C)C(=O)[C@@H](OC3CC(OC4CC(OC6CC(C)(O)C(OC(C)=O)C(C)O6)C(O)C(C)O4)C(O)C(C)O3)[C@H]([C@H](OC)C(=O)[C@@H](O)[C@@H](C)O)C5)OC(C)C2OC(C)=O)OC1C (stereo not given in full)")
"true"
>>> labelvalue("CS/C(c1ccccc1)=[N+](\\[O-])Cc1ccccc1")
"false"
>>> labelvalue("Cc1c2ccccc2c(C)n2c1nc1cc(Cl)c(Cl)cc12")
"false"
>>> labelvalue("C=CCN1C(=O)CS/C1=N\\NC(=O)c1c(C)nc2sccn12")
"false"
>>> labelvalue("Cc1ccc([N+](=O)[O-])cc1NC(=O)c1cccc([N+](=O)[O-])c1O")
"false"
